target: T1, human NGF (his tag) (human, UniProt P01138 122-241, limits assumed); assay: BLI (ForteBio Octet), method of example 4
T1 construct: Captured on Ni-NTA sensors in the ForteBio Octet assay; also called hNGF; antigen; not shown: his tag
T1 sequence (P01138 122-241 limits assumed): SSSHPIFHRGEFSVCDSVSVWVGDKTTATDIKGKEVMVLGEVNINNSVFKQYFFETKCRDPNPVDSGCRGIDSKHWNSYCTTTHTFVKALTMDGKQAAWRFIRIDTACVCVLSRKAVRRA
Measure name: Kd

[[record]]
binder = "humanized antibody AB5D3 (antibody, V domains shown, Humanized from #2 by CDR transplantation) VH: QVQLVQSGAEVKKPGASVKVSCKASGYTFTDYWMHWVRQAPGQGLEWMGIIYPGDGYTSYAQKFQGRVTMTRDTSTSTVYMELSSLRSEDTAVYYCARRAAYYTMDYWGQGTLVTVSS VL: DIQMTQSPSSLSASVGDRVTITCRASQDVNTALAWYQQKPGKAPKLLLYWASRLESGVPSRFSGSGSGTDYTLTISSLQPEDFATYYCQQHYSSPWTFGGGTKVEIT"
endpoint_result = "12.9 pM"


INPUT: Which value of Kd has been reported for humanized antibody AB5C2 (antibody, V domains shown, Humanized from #56 by CDR transplantation) VH: QVQLQESGPGLVKPSETLSLTCTVSGFSLTGYGVNWVRQPPGKGLEWLGMIWADGDTDYNSALKSRVTISKDTSKNQFSLKLSSVTAADTARYYCARDSYYYGYNFFDVWGAGTTVTVSS VL: DIQMTQSPSSLSASVGDRVTITCRASQDISNYLNWYQQKPGKAPKLLIYYTSRLHSGVPSRFSGSGSGTDFTFTISSLQPEDIATYFCQQGNTLPRTFGGGTKVEIK in the records?
OUTPUT: 1.3 pM
